Cited source: patent US20200079833A1

Measured Primary assay EC50 (cAMP), GIP-R, first run of individual entries
Molecular target: T1, glucose-dependent insulinotropic peptide (gastric inhibitory polypeptide) receptor (GIPR) (human, UniProt P48546 22-466)
T1 sequence (looked up): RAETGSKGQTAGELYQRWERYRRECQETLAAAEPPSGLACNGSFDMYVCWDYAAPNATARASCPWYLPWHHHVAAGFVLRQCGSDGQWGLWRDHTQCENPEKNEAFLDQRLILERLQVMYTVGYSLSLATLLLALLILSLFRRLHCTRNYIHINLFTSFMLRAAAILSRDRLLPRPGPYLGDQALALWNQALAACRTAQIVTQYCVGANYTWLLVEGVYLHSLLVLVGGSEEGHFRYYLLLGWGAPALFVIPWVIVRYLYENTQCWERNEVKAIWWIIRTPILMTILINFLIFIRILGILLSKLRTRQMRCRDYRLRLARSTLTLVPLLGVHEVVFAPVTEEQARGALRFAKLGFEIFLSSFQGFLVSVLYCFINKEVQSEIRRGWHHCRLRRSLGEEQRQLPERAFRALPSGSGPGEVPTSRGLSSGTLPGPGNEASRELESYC
Assay: cell-based or functional assay
Starred links: 1 amine or outer side, 2 acyl side, 3 side chain; linkers in the order of their positions; H or OH if unused. Non-standard residues stand in square brackets, D forms with d. Groups on a side chain read outwards from the residue. Primed or numbered codes have the meaning given here. No end group written: not given here. *: point of attachment. Dodecylbenzoate = dodecylbenzoyl lipid group; γGlu = O=C(O)[C@H](CCC(=O)[*:2])N[*:1]; Stearoyl = CCCCCCCCCCCCCCCCCC(=O)*; αMeF = C[C@](N)(Cc1ccccc1)C(=O)O; αMeK = C[C@](N)(CCCCN)C(=O)O; Lauroyl = CCCCCCCCCCCC(=O)*; αMeS = C[C@](N)(CO)C(=O)O; PEG2′ = not defined here; Aib = CC(C)(N)C(=O)O; Ahx = NCCCCCC(=O)O
Property Name: Primary assay EC50 (cAMP), GIP-R, first run (nM)

Binder	Measured Number
H[Aib]EGS[αMeF]TSDV[αMeS]S[αMeF]LEGEAA[αMeK]E[αMeF]IA[αMeF]VVK([PEG2′-PEG2′-Dodecylbenzoate])GG-NH2 [SEQ ID NO 180]	26
H[Aib]EGS[αMeF]TSDV[αMeS]S[αMeF]LEGEAA[αMeK]E[αMeF]IA[αMeF]VVK([γGlu-γGlu-Dodecylbenzoate])GG-NH2 [SEQ ID NO 174]	26
H[Aib]EGS[αMeF]TSDV[αMeS]S[αMeF]LEGEAA[αMeK]E[αMeF]IA[αMeF]VVK([Ahx-Ahx-Dodecylbenzoate])GG-NH2 [SEQ ID NO 177]	27
H[Aib]EGS[αMeF]TSDV[αMeS]S[αMeF]LEGEAAK([PEG2′-PEG2′-PEG2′-Stearoyl])E[αMeF]IA[αMeF]VV[αMeK]GG-NH2 [SEQ ID NO 154]	26
H[Aib]EGS[αMeF]TSDV[αMeS]S[αMeF]LEGEAA[αMeK]E[αMeF]IA[αMeF]VVK([PEG2′-PEG2′-PEG2′-Dodecylbenzoate])GG-NH2 [SEQ ID NO 181]	25
H[Aib]EGS[αMeF]TSDV[αMeS]S[αMeF]LEGEAA[αMeK]E[αMeF]IA[αMeF]VVK([PEG2′-PEG2′-PEG2′-Lauroyl])GG-NH2 [SEQ ID NO 172]	26
H[Aib]EGS[αMeF]TSDV[αMeS]S[αMeF]LEGEAAK([PEG2′-PEG2′-PEG2′-Stearoyl])E[αMeF]IA[αMeF]VV[αMeK]GG-NH2 [SEQ ID NO 163]	25
H[Aib]EGS[αMeF]TSDV[αMeS]S[αMeF]LEGEAA[αMeK]E[αMeF]IA[αMeF]VVK([γGlu-Dodecylbenzoate])GG-NH2 [SEQ ID NO 173]	27
H[Aib]EGS[αMeF]TSDV[αMeS]S[αMeF]LEGEAA[αMeK]E[αMeF]IA[αMeF]VVK([γGlu-γGlu-γGlu-Dodecylbenzoate])GG-NH2 [SEQ ID NO 175]	26
H[Aib]EGS[αMeF]TSDV[αMeS]S[αMeF]LEGEAA[αMeK]E[αMeF]IA[αMeF]VVK([PEG2′-Stearoyl])GG-NH2 [SEQ ID NO 197]	27
